Hi there, I'd appreciate the recorded viability, T/C for every entry that follows.
Tested on: 556581-035-R-J1-PDC spheroids with HUVEC/MSC, viability;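 further: spheroids exposed to compounds for 7 days before readout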
EXPERIMENT SUMMARY: Anticancer human tumor 556581-035-R-J1-PDC patient-derived ovarian carcinoma cell line growth inhibition [IpAb]
ASSAY CONTEXT: second compound 1 µM; first compound 10 µM; active compounds read low
Procedure: Combinatorial screen of targeted agents with ipatasertib and abemaciclib in multi-cell type tumor spheroids […] Compounds. […] If the clinical Cmax for an agent had not been determined, the highest concentration tested was 10 microM. NCI60 Cell Culture. […] The optimal seeding densities for each of the cell lines at each time point assessed were determined prior to performing the concentration response studies. […]
Answers are plain numbers, in %.

Worked examples follow.
• Cn1nccc1Nc1nccc(-c2ccn(C(CO)c3ccc(Cl)c(F)c3)c(=O)c2)n1 (stereo not given) + CCN1CCN(Cc2ccc(Nc3ncc(F)c(-c4cc(F)c5nc(C)n(C(C)C)c5c4)n3)nc2)CC1 = 27.2
• Cn1ncc(Cl)c1-c1cc(C(=O)NC(CN)Cc2cccc(F)c2)sc1Cl (stereo not given) + CC(C)NCC(C(=O)N1CCN(c2ncnc3c2C(C)CC3O)CC1)c1ccc(Cl)cc1 = 0.18
• Cn1ncc(Cl)c1-c1cc(C(=O)NC(CN)Cc2cccc(F)c2)sc1Cl (stereo not given) + CCN1CCN(Cc2ccc(Nc3ncc(F)c(-c4cc(F)c5nc(C)n(C(C)C)c5c4)n3)nc2)CC1 = 0.54
• C=CCn1c(=O)c2cnc(Nc3ccc(N4CCN(C)CC4)cc3)nc2n1-c1cccc(C(C)(C)O)n1 + CCN1CCN(Cc2ccc(Nc3ncc(F)c(-c4cc(F)c5nc(C)n(C(C)C)c5c4)n3)nc2)CC1 = 13.9
• CCCS(=O)(=O)Nc1ccc(F)c(C(=O)c2c[nH]c3ncc(-c4ccc(Cl)cc4)cc23)c1F + CC(C)NCC(C(=O)N1CCN(c2ncnc3c2C(C)CC3O)CC1)c1ccc(Cl)cc1 = 40.4

Respectfully, I request viability, T/C for each entry included below.
1. C=CCn1c(=O)c2cnc(Nc3ccc(N4CCN(C)CC4)cc3)nc2n1-c1cccc(C(C)(C)O)n1 + CC(C)NCC(C(=O)N1CCN(c2ncnc3c2C(C)CC3O)CC1)c1ccc(Cl)cc1
2. C=CC(=O)N1CCN(c2nc(=O)n(-c3c(C)ccnc3C(C)C)c3nc(-c4c(O)cccc4F)c(F)cc23)C(C)C1 (stereo not given) + CCN1CCN(Cc2ccc(Nc3ncc(F)c(-c4cc(F)c5nc(C)n(C(C)C)c5c4)n3)nc2)CC1
3. CC1(C)CCC(CN2CCN(c3ccc(C(=O)NS(=O)(=O)c4ccc(NCC5CCOCC5)c([N+](=O)[O-])c4)c(Oc4cnc5[nH]ccc5c4)c3)CC2)=C(c2ccc(Cl)cc2)C1 + CC(C)NCC(C(=O)N1CCN(c2ncnc3c2C(C)CC3O)CC1)c1ccc(Cl)cc1
4. Cc1nc(NC(=O)N2CCCC2C(N)=O)sc1-c1ccnc(C(C)(C)C(F)(F)F)c1 (stereo not given) + CC(C)NCC(C(=O)N1CCN(c2ncnc3c2C(C)CC3O)CC1)c1ccc(Cl)cc1
5. CC1(C)CCC(CN2CCN(c3ccc(C(=O)NS(=O)(=O)c4ccc(NCC5CCOCC5)c([N+](=O)[O-])c4)c(Oc4cnc5[nH]ccc5c4)c3)CC2)=C(c2ccc(Cl)cc2)C1 + CCN1CCN(Cc2ccc(Nc3ncc(F)c(-c4cc(F)c5nc(C)n(C(C)C)c5c4)n3)nc2)CC1

Reply text:
[26.4, 17.6, 18.2, 16.2, 6.15]
